assay-overview: Human plasma stability
Format: in vitro ADME
property: log10(half-life at 19.6 μM) (log10 of the value in h)
All values: log10 half-life at 19.6 μM [h].

Cc1c(NC(=O)OC(C)(C)C)ccc2nc(N[C@@H](CCc3ccccc3)C(=O)N(C)Cc3ccccn3)oc(=O)c12 | 1.00

Give log10(half-life at 19.6 μM) for all compounds that follow.
1. Cc1c(NC(=O)OC(C)(C)C)ccc2nc(NC3(C(=O)N(C)Cc4cccnc4)CCCCC3)oc(=O)c12
2. Cc1c(NC(=O)OC(C)(C)C)ccc2nc(N[C@@H](Cc3ccccc3)C(=O)NCc3ccccn3)oc(=O)c12
3. Cc1c(NC(=O)OC(C)(C)C)ccc2nc(N(C)[C@@H](Cc3ccccc3)C(=O)NCc3ccccn3)oc(=O)c12
4. Cc1c(NC(=O)OC(C)(C)C)ccc2nc(NC(C)(C)C(=O)N(C)CCc3ccccn3)oc(=O)c12
5. Cc1c(NC(=O)OC(C)(C)C)ccc2nc(N[C@@H](C)C(=O)N(C)CCc3cccnc3)oc(=O)c12
6. Cc1c(NC(=O)OC(C)(C)C)ccc2nc(NC(C)(C)C(=O)N(C)CCc3cccnc3)oc(=O)c12
7. Cc1c(NC(=O)OC(C)(C)C)ccc2nc(NC(C)(C)C(=O)N(C)Cc3ccccn3)oc(=O)c12

Ans:
1.17
0.17
0.48
0.45
0.48
0.79
0.71

====

System: Vero cells
assay-overview: Cytotoxicity, Vero cells, Alamar Blue
Type: cell-based
condition-details: 25 μM, 20 hours
# note: exactly 70% is not below, so it is N; use Y for Cell viability (% of control) strictly under it

Some solved cases for reference:
Cc1c(NC(=O)OC(C)(C)C)ccc2nc(N3CCC[C@H]3C(=O)NCc3ccccn3)oc(=O)c12 | N
Cc1c(NC(=O)C=Cc2ccccc2)ccc2nc(NC(C)(C)C(=O)N(C)CCc3ccccn3)oc(=O)c12 | Y
Cc1c(NC(=O)OC(C)(C)C)ccc2nc(N(C)[C@@H](C)C(=O)NCCc3ccccn3)oc(=O)c12 | N

Q: For this molecule, is Cell viability (% of control) lower than 70%? Cc1c(NC(=O)OC(C)(C)C)ccc2nc(N[C@@H](CC3CCCCC3)C(=O)N(C)CCc3ccncc3)oc(=O)c12
Ans: Y

Q: Consider Cc1c(NC(=O)OC(C)(C)C)ccc2nc(N[C@@H](CCc3ccccc3)C(=O)N(C)CCc3ccccn3)oc(=O)c12 . Does its Cell viability (% of control) lie strictly below 70%?
Ans: Y

Q: Dear colleague, could you confirm whether Cell viability (% of control) of Cc1c(NC(=O)OC(C)(C)C)ccc2nc(N[C@@H](CC(C)C)C(=O)N(C)CCc3ccncc3)oc(=O)c12 falls below 70%? Thanks.
Ans: Y

Q: Given COc1cc(OC)cc(C(=O)Nc2ccc3nc(NC(C)(C)C(=O)N(C)CCc4ccccn4)oc(=O)c3c2C)c1 , is recorded Cell viability (% of control) strictly lower than 70%?
Ans: N

Q: Answer whether the molecule Cc1c(NC(=O)c2ccccc2C(F)(F)F)ccc2nc(NC(C)(C)C(=O)N(C)CCc3ccccn3)oc(=O)c12 has Cell viability (% of control) strictly less than 70%
Ans: N

Q: Record Cc1c(NC(=O)OC(C)(C)C)ccc2nc(N[C@H](C(=O)N(C)CCc3ccccn3)C(C)C)oc(=O)c12 : is its Cell viability (% of control) strictly below 70%?
Ans: N

====

Test system: HSV-1
assay-overview: Antiviral activity, HSV-1 in Vero cells, plaque method
Type: cell-based
condition-details: Human alphaherpesvirus 1, 20 hours, 90% inhibition of plaque formation
Assign EC90 to each entry below.

Working through the 5 molecules below one at a time, give EC90 for each.
1. Cc1oc(C(C)(C)C)cc1C(=O)Nc1ccc2nc(NC(C)(C)C(=O)N(C)CCc3ccccn3)oc(=O)c2c1C
2. Cc1c(NC(=O)COCc2ccccc2)ccc2nc(NC(C)(C)C(=O)N(C)CCc3ccccn3)oc(=O)c12
3. Cc1c(NC(=O)OC(C)(C)C)ccc2nc(NCCC(=O)N(C)CCc3ccccn3)oc(=O)c12
4. Cc1c(NC(=O)CCNC(=O)OC(C)(C)C)ccc2nc(N(C)CC(=O)N(C)CCc3ccccn3)oc(=O)c12
5. Cc1c(NC(=O)c2cccc(C#N)c2)ccc2nc(NC(C)(C)C(=O)N(C)CCc3ccccn3)oc(=O)c12

Ans:
1: > 12.5 µM; 2: 12.1 µM; 3: > 20 µM; 4: > 20 µM; 5: > 12.5 µM

Respectfully, I request EC90 for each entry included below.
1. COC(=O)c1ccc(C(=O)Nc2ccc3nc(NC(C)(C)C(=O)N(C)CCc4ccccn4)oc(=O)c3c2C)cc1
2. Cc1c(NC(=O)c2ccc(OC(F)(F)F)cc2)ccc2nc(NC(C)(C)C(=O)N(C)CCc3ccccn3)oc(=O)c12

Ans:
["6.1 µM", "7.1 µM"]

====

Would you mind telling me the reported log10(IC50) of each entry?
measured-target: HSV-1 protease (Human herpesvirus 1)
Construct: 6xHis (N); made in house; host or cells: baculovirus expression system
Sequence (P10210 1-247): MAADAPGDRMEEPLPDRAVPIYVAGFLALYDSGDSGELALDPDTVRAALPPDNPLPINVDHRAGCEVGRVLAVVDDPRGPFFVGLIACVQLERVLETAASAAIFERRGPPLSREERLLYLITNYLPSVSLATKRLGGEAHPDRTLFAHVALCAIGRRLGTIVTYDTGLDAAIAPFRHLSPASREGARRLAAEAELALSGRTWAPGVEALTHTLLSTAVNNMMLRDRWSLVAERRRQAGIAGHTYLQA
assay-overview: Enzymatic assay for HSV-1 protease (assembly) inhibitor, fluorescence polarization
Assay type: biochemical
condition-details: read-out: HSV-1 Enzyme inhibition IC50
Annotation: log10 of IC50, nM basis.

Consider the worked cases shown below.
Cc1c(NC(=O)OC(C)(C)C)ccc2nc(N3Cc4ccccc4C[C@H]3C(=O)NCCc3ccccn3)oc(=O)c12 [Compound No.97] | 3.52
Cc1c(NC(=O)OC(C)(C)C)ccc2nc(N[C@@H](CCc3ccccc3)C(=O)N(C)Cc3ccccn3)oc(=O)c12 [Compound No.23] | 2.85
Cc1c(NC(=O)c2cccc3ccccc23)ccc2nc(NC(C)(C)C(=O)N(C)CCc3ccccn3)oc(=O)c12 [Compound No.190] | 3.11
Cc1c(NC(=O)OC(C)(C)C)ccc2nc(N[C@H](C)C(=O)N(C)CCc3ccccn3)oc(=O)c12 [Compound No.132] | 2.90
Cc1c(NC(=O)c2ccc([N+](=O)[O-])cc2)ccc2nc(NC(C)(C)C(=O)N(C)CCc3ccccn3)oc(=O)c12 [Compound No.142] | 3.11

Hey, can you go through the list below and give me log10(IC50) for every item?
1. CCCCCc1ccc(C(=O)Nc2ccc3nc(NC(C)(C)C(=O)N(C)CCc4ccccn4)oc(=O)c3c2C)cc1 [Compound No.185]
2. Cc1c(NC(=O)OC(C)(C)C)ccc2nc(N3Cc4ccccc4C[C@H]3C(=O)NCc3ccccn3)oc(=O)c12 [Compound No.94]
3. Cc1cc(C(=O)Nc2ccc3nc(NC(C)(C)C(=O)N(C)CCc4ccccn4)oc(=O)c3c2C)c(C(F)(F)F)o1 [Compound No.175]
4. Cc1c(NC(=O)c2cccc(OC(F)(F)F)c2)ccc2nc(NC(C)(C)C(=O)N(C)CCc3ccccn3)oc(=O)c12 [Compound No.172]
5. CCCCc1ccc(C(=O)Nc2ccc3nc(NC(C)(C)C(=O)N(C)CCc4ccccn4)oc(=O)c3c2C)cc1 [Compound No.167]
6. Cc1ccccc1C(=O)Nc1ccc2nc(NC(C)(C)C(=O)N(C)CCc3ccccn3)oc(=O)c2c1C [Compound No.156]

Ans:
[3.85, 3.36, 3.40, 3.08, 3.23, 3.58]

The following molecules each have a reported value; give each one's log10(IC50).
1. Cc1c(NC(=O)CCNC(=O)OC(C)(C)C)ccc2nc(N(C)CC(=O)N(C)CCc3ccccn3)oc(=O)c12 [Compound No.226]
2. Cc1c(NC(=O)OC(C)(C)C)ccc2nc(N[C@H](C(=O)NCc3ccccn3)C(C)(C)C)oc(=O)c12 [Compound No.32]

Ans:
[3.00, 4.29]

====

Assignment: determine reported pIC50 for the given molecules.
measured-target: UniProtKB P10210
One number for each entry, as −log10 of the molar value.

Recorded pIC50, per entry:
Cc1c(NC(=O)OC(C)(C)C)ccc2nc(N3CCCC[C@H]3C(=O)NCc3cccnc3)oc(=O)c12 | 5.59
Cc1c(NC(=O)OC(C)(C)C)ccc2nc(N[C@@H](CC(C)C)C(=O)NCc3ccncc3)oc(=O)c12 | 5.00
Cc1c(NC(=O)OC(C)(C)C)ccc2nc(NC(C)(C)C(=O)N(C)CCc3ccccn3)oc(=O)c12 | 6.40
Cc1c(NC(=O)OC(C)(C)C)ccc2nc(NCC(=O)N(C)CCc3ccccn3)oc(=O)c12 | 6.40
Cc1c(NC(=O)c2ccc(CCl)cc2)ccc2nc(NC(C)(C)C(=O)N(C)CCc3ccccn3)oc(=O)c12 | 5.68

Could you report pIC50 for every entry in the following list?
1. Cc1c(NC(=O)C(C)C)ccc2nc(NC(C)(C)C(=O)N(C)CCc3ccccn3)oc(=O)c12
2. Cc1c(NC(=O)c2scc(S(=O)(=O)C(C)C)c2Cl)ccc2nc(NC(C)(C)C(=O)N(C)CCc3ccccn3)oc(=O)c12
3. CCCCOc1ccc(C(=O)Nc2ccc3nc(NC(C)(C)C(=O)N(C)CCc4ccccn4)oc(=O)c3c2C)cc1
4. Cc1c(NC(=O)OC(C)(C)C)ccc2nc(N(C)[C@@H](Cc3ccccc3)C(=O)N(C)CCc3ccncc3)oc(=O)c12
5. Cc1c(NC(=O)OC(C)(C)C)ccc2nc(N[C@@H](Cc3ccccc3)C(=O)N(C)Cc3ccccn3)oc(=O)c12
6. Cc1c(NC(=O)c2ccccc2)ccc2nc(NC(C)(C)C(=O)N(C)CCc3ccccn3)oc(=O)c12

Ans:
1: 5.68; 2: 5.72; 3: 5.70; 4: 5.64; 5: 5.77; 6: 5.55

Working through the 4 molecules below one at a time, give pIC50 for each.
1. Cc1c(NC(=O)OC(C)(C)C)ccc2nc(NC(C)(C)C(=O)N(C)CCc3ccccc3)oc(=O)c12 [compound 229, reference compound]
2. Cc1c(NC(=O)OC(C)(C)C)ccc2nc(N3CCCC[C@H]3C(=O)N(C)CCc3ccncc3)oc(=O)c12
3. Cc1c(NC(=O)OC(C)(C)C)ccc2nc(N3CCC[C@H]3C(=O)NCc3ccncc3)oc(=O)c12
4. Cc1c(NC(=O)c2cccs2)ccc2nc(N[C@@H](C)C(=O)N(C)CCc3ccccn3)oc(=O)c12

Ans:
1. 4.91
2. 5.36
3. 5.57
4. 5.89

State the recorded pIC50 for every item in the following list.
1. Cc1c(NC(=O)OC(C)(C)C)ccc2nc(N[C@@H](CC(C)C)C(=O)NCc3cccnc3)oc(=O)c12
2. Cc1c(NC(=O)OC(C)(C)C)ccc2nc(N[C@@H](C)C(=O)N(C)Cc3ccccn3)oc(=O)c12
3. Cc1c(NC(=O)OC(C)(C)C)ccc2nc(N3CCCC[C@H]3C(=O)NCc3ccncc3)oc(=O)c12
4. Cc1c(NC(=O)CCNC(=O)c2ccc(C(F)(F)F)cc2)ccc2nc(NC(C)(C)C(=O)N(C)CCc3ccccn3)oc(=O)c12
5. Cc1c(NC(=O)OC(C)(C)C)ccc2nc(N3Cc4ccccc4C[C@H]3C(=O)N(C)Cc3ccccn3)oc(=O)c12
6. Cc1c(NC(=O)OC(C)(C)C)ccc2nc(N[C@@H](C)C(=O)N(C)CCc3cccnc3)oc(=O)c12

Ans:
1. 5.34
2. 5.77
3. 5.37
4. 6.15
5. 5.21
6. 6.70

Report pIC50 for every entry below.
1. Cc1c(NC(=O)OC(C)(C)C)ccc2nc(N[C@@H](CCc3ccccc3)C(=O)NCCc3ccccn3)oc(=O)c12
2. CCC(CC)C(=O)Nc1ccc2nc(NC(C)(C)C(=O)N(C)CCc3ccccn3)oc(=O)c2c1C
3. Cc1c(NC(=O)OC(C)(C)C)ccc2nc(NC3(C(=O)N(C)Cc4ccncc4)CCCC3)oc(=O)c12
4. Cc1c(NC(=O)OC(C)(C)C)ccc2nc(N3Cc4ccccc4C[C@H]3C(=O)N(C)CCc3cccnc3)oc(=O)c12

Ans:
1. 6.00
2. 5.14
3. 5.55
4. 5.01
